Ratio values, listed per item
- Protocol Details: Selectivity index, ratio of TC50 for human CEM cells to EC50 for SIV-induced syncytium
- Design: species or system CCRF-CEM

# Chem Smiles, Ratio
records = [
    ("CCN(CC)c1nc(C)c2nc(SCC(=O)NCCNC(=N)N)n(CCCn3cncn3)c2n1", ">18.5"),
    ("CCN(CC)c1nc(C)c2nc(SCC(=O)NCCNC(=N)N)n(CCNc3nc(N)nc4[nH]cnc34)c2n1", ">16.4"),
    ("CCN(CC)c1nc(C)c2nc(SCC(=O)NCCCN)n(CCn3cncn3)c2n1", ">8.7"),
    ("CCN(CC)c1nc(C)c2nc(SCC(=O)NCCCNC(=N)N)n(CCNc3ncnc4[nH]cnc34)c2n1", ">7.7"),
    ("CCN(CC)c1nc(C)c2nc(SCC(=O)NCCNC(=N)N)n(CCc3c[nH]c4ccccc34)c2n1", 3.7),
    ("CCN(CC)c1nc(C)c2nc(SCC(=O)NCCCN)n(CCCN3CCOCC3)c2n1", 7.4),
    ("CCN(CC)c1nc(C)c2nc(SCC(=O)NCCN)n(CCCn3cncn3)c2n1", ">14.5"),
    ("CCN(CC)c1nc(C)c2nc(SCC(=O)NCCNC(=N)N)n(CCn3cncn3)c2n1", ">8.1"),
    ("CCN(CC)c1nc(C)c2nc(SCC(=O)NCCCNC(=N)N)n(CCn3cncn3)c2n1", ">14.1"),
]

* * *

- Protocol Details: Cytotoxicity against human CEM cells assessed as inhibition of uninfected cells proliferation
- Format: cell-based
- Experimental Conditions: CEM (CCRF-CEM) cells, read-out: TC50 (the source's name)

# Chem Smiles, CC50
rows = [
    ("CCN(CC)c1nc(C)c2nc(SCC(=O)NCCCNC(=N)N)n(CCn3cncn3)c2n1", "> 100 µM"),
    ("CCN(CC)c1nc(C)c2nc(SCC(=O)NCCN)n(CCNc3nc(N)nc4[nH]cnc34)c2n1", "> 100 µM"),
    ("CCN(CC)c1nc(C)c2nc(SCC(=O)NCCCN)n(CCn3cncn3)c2n1", "> 100 µM"),
    ("CCN(CC)c1nc(C)c2nc(SCC(=O)NCCN)n(CCCn3cncn3)c2n1", "> 100 µM"),
    ("CCN(CC)c1nc(C)c2nc(SCC(=O)NCCNC(=N)N)n(CCc3c[nH]c4ccccc34)c2n1", "29.5 µM"),
    ("CCN(CC)c1nc(C)c2nc(SCC(=O)NCCN)n(CCc3c[nH]c4ccccc34)c2n1", "6.5 µM"),
]

* * *

- Protocol Details: Cytotoxicity against human CEM cells assessed as inhibition of uninfected cells proliferation
- Format: cell-based
- Experimental Conditions: CEM (CCRF-CEM) cells, read-out: TC50 (the source's name)
// CC50 lookup, one value per entry
Endpoint: CC50

# Chem Smiles, Endpoint, Observed
measured = [
    ("CCN(CC)c1nc(C)c2nc(SCC(=O)NCCN)n(CCCN3CCOCC3)c2n1", "CC50", "64.8 µM"),
    ("CCN(CC)c1nc(C)c2nc(SCC(=O)NCCCN)n(CCNc3nc(N)nc4[nH]cnc34)c2n1", "CC50", "> 100 µM"),
    ("CCN(CC)c1nc(C)c2nc(SCC(=O)NCCNC(=N)N)n(CCNc3ncnc4[nH]cnc34)c2n1", "CC50", "92.7 µM"),
    ("CCN(CC)c1nc(C)c2nc(SCC(=O)NCCNC(=N)N)n(CCCn3cncn3)c2n1", "CC50", "> 100 µM"),
    ("CCN(CC)c1nc(C)c2nc(SCC(=O)NCCCNC(=N)N)n(CCCN3CCOCC3)c2n1", "CC50", "> 100 µM"),
    ("CCN(CC)c1nc(C)c2nc(SCC(=O)NCCCN)n(CCNc3ncnc4[nH]cnc34)c2n1", "CC50", "> 100 µM"),
    ("CCN(CC)c1nc(C)c2nc(SCC(=O)NCCCNC(=N)N)n(CCNc3nc(N)nc4[nH]cnc34)c2n1", "CC50", "> 100 µM"),
    ("CCN(CC)c1nc(C)c2nc(SCC(=O)NCCCN)n(CCc3c[nH]c4ccccc34)c2n1", "CC50", "10.2 µM"),
    ("CCN(CC)c1nc(C)c2nc(SCC(=O)NCCN)n(CCNc3ncnc4[nH]cnc34)c2n1", "CC50", "> 100 µM"),
]
